B1: ANKRD9 (parent)
chain: VGAAGSARQELLGDRPRWQRLLGE

- Variants of: B1
- Measurement notes: protein stability index of a GFP-peptide fusion (GPS, HEK-293T) (PSI 1-6); higher = more stable;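 also: lentivirally expressed fusions sorted by FACS into six bins by GFP to DsRed ratio, PSI derived from sequencing read proportions per bin multiplied by bin number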
- Study conditions: c terminus: a fixed tail appended
Measurement name: protein stability index
I'd appreciate a reply containing only the number, no unit.

INPUT: I am curious: what protein stability index value has been reported for VGAAQSARQELLGDRPRWQRLLGE [G5Q] ?
OUTPUT: 3.09

INPUT: Record request: protein stability index value, item VGAAGSARQELLGDRPRFQRLLGE [W18F]
OUTPUT: 3.54

INPUT: So what does the record say about protein stability index for VWAAGSARQELLGDRPRWQRLLGE [G2W] ?
OUTPUT: 2

INPUT: Form field: reported protein stability index of VGAAGVARQELLGDRPRWQRLLGE [S6V]
OUTPUT: 2.86

INPUT: What measured protein stability index goes with VAAAGSARQELLGDRPRWQRLLGE [G2A] ?
OUTPUT: 3.23

INPUT: Given the variant VGASGSARQELLGDRPRWQRLLGE [A4S] , what is its reported protein stability index?
OUTPUT: 3.24

INPUT: Quick one: protein stability index for VGAAGSARKELLGDRPRWQRLLGE [Q9K] ?
OUTPUT: 3.05

INPUT: Would you mind telling me what protein stability index value was observed for VGAAGSARQELLGDRPRWQRLLPE [G23P] ?
OUTPUT: 3.22

INPUT: protein stability index lookup needed for VGAAGSARQELLSDRPRWQRLLGE [G13S] , thanks.
OUTPUT: 2.72

INPUT: What does the record list as protein stability index for VGAAGSARQELLGDRPRWYRLLGE [Q19Y] ?
OUTPUT: 2.59

INPUT: # query: protein stability index of entry VGAAGEARQELLGDRPRWQRLLGE [S6E]
OUTPUT: 3.88

INPUT: If you can, please state the reported protein stability index value of VGAAGSARQELLGCRPRWQRLLGE [D14C] .
OUTPUT: 1.39

INPUT: GET /values?readout=protein stability index&item= VGAAGSARQELLGARPRWQRLLGE [D14A]
OUTPUT: 2.83

INPUT: Look at this variant and give its reported protein stability index. VGAAGSARQELLGDRPRWQRLRGE [L22R]
OUTPUT: 3.67

INPUT: What value of protein stability index has been reported for the following variant? VGAAGSARQELLGDRPRWQRLLGN [E24N]
OUTPUT: 3.17

INPUT: # protein stability index lookup, item VGAAGSARQELAGDRPRWQRLLGE [L12A]
OUTPUT: 3.64

INPUT: What does the data say about its protein stability index? Entry: VGAAGSARQELLGDTPRWQRLLGE [R15T]
OUTPUT: 3.68

INPUT: Entry VGAAGSARQELLGDRSRWQRLLGE [P16S] has what protein stability index?
OUTPUT: 3.16

INPUT: # query: protein stability index of entry VGAYGSARQELLGDRPRWQRLLGE [A4Y]
OUTPUT: 2.08

INPUT: What measured protein stability index goes with VGAAGSARMELLGDRPRWQRLLGE [Q9M] ?
OUTPUT: 3

INPUT: Record request: protein stability index value, item VGAAGSARQELLGDMPRWQRLLGE [R15M]
OUTPUT: 3.05

INPUT: Reported protein stability index, variant VGAAGSARFELLGDRPRWQRLLGE [Q9F] : ____
OUTPUT: 2.81

INPUT: Need protein stability index, item VGAAGSARQELLGDRPRWQRLLCE [G23C]
OUTPUT: 2.88

The measurements presented in this section are drawn from the supplement of paper PMC10567573.
